Tested on: U251 CNS
Experiment: NCI-60 one-dose screen, 48 h (100 = growth as untreated, 0 = no growth, -100 = all killed)
Conditions: 10 µM
The panel holds about 83,000 compounds, 20% with a hit somewhere; the sample as a whole holds those more often.
Note to self: class = bucket of growth, per class 0 (below 10%), class 1 (10% to below 90%), class 2 (90% or more)

{"smiles_notation": "COc1cc(-c2csc(NC(=O)Nc3ccc(Cl)c(C(F)(F)F)c3)n2)cc(OC)c1OC", "class_name": "class 0"}
{"smiles_notation": "COc1cc2cc(Oc3ccc(NC(=O)Nc4ccc(Cl)c(Cl)c4)cc3)c(C)nc2cc1OC", "class_name": "class 0"}
{"smiles_notation": "COc1cc(-c2nn(-c3cccc(NC(=O)CCN4CCN(c5ccccc5)CC4)c3)cc2-c2ccncc2)ccc1Cl", "class_name": "class 1"}
{"smiles_notation": "CCc1ccc(-c2ccc(-n3nc(C)c4c(N)nc(Cc5ccccc5)nc43)cc2)cc1", "class_name": "class 1"}
{"smiles_notation": "CCn1c(SCc2ccc(C)cc2)nnc1-c1nn(-c2ccc(Cl)cc2Cl)c(-c2ccc(Cl)cc2)c1C", "class_name": "class 1"}
{"smiles_notation": "COc1cccc2ccc(CC(O)(c3ccccc3)c3ccccc3)nc12", "class_name": "class 2"}
{"smiles_notation": "CCCCCCCCCCOC(c1ccccc1)c1ccccc1", "class_name": "class 2"}
{"smiles_notation": "COc1cccc(CNc2cccc3cn[nH]c23)c1O", "class_name": "class 2"}
{"smiles_notation": "CNC(=O)c1cc(Oc2ccc3c(c2)sc2nc(-c4ccc(N)cc4)cn23)ccn1", "class_name": "class 1"}
{"smiles_notation": "COc1ccc(-c2cc(-c3ccccc3)nc(SCCCCCCC(=O)NO)n2)cc1", "class_name": "class 1"}
{"smiles_notation": "CCOC(=O)N/N=C/c1ccc(OC)c(OC)c1", "class_name": "class 2"}
